The reported measurements were obtained from the supplement of paper PMC10681739.

TARGET_OF_ASSAY: ETS1 (UniProt P14921)
Sequence: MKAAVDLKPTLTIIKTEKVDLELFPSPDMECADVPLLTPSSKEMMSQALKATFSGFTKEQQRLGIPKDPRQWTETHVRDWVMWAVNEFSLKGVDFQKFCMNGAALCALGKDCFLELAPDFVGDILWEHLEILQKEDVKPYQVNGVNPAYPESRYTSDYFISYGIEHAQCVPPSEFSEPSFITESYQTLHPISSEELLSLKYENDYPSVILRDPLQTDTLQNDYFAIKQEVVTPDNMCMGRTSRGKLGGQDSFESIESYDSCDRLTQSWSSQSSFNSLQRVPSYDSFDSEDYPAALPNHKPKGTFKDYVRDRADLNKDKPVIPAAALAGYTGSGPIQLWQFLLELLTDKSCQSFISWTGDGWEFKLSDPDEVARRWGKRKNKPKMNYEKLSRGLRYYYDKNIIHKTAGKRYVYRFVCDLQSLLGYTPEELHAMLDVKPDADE
METHOD: ETS1 binding intensity (PBM fluorescence), ETS1 alone (arbitrary fluorescence units); higher = stronger binding
ASSAY_SETUP: ETS1 concentration 1 nM; RUNX1 concentration 0 nM
In all, about 4,100 sequences were measured (“arbitrary fluorescence units”: median about 780, highest 2% from about 22,000 on). The entries come from a sample that favours the highest values as a whole.
Kind request: treat 5000 as inclusive, so ETS1 binding intensity at 5000 or higher is true, anything lower is false.

These solved cases illustrate the format of a correct answer.
AAAGCATTTCCTGCCTTGACTTAACTACAAGACAGG :: true
GAAGGGAGGAAGCCTGAGAACTGTTGTCTCCTGAAG :: false
CCCAATTTCCTTTGCTCTGCTGTCTGCCAACCCCAA :: false
GCAGATATCACAGACTCTCTCCTTTCCTGCTGAATA :: false
ATGAGCTATTTCCTGCCTTGTTGTCAGAGCCAGACT :: true
GTTGCAAAGGCGCCTACAACTACTTCCGCTTCTAGT :: false
CTTGACTTAACTACAAGACAGGATGGGTTGATGAAG :: false
ACAACTTCCTGTGGGATTTTTGGTGTCTACGGCTCA :: true

Switching to the query record.
Asked: Hi, just wondering whether CCGTACTTCCGCTTTACTCAGATTTTGGACCTCGGG shows ETS1 binding intensity of 5000 or higher.
Given back: true
